FYI, the data here is from paper PMC12169608.

- assayed target: SARS-CoV-2 M^pro (Severe acute respiratory syndrome coronavirus 2, UniProt P0DTD1)
- assay name: biochemical
- Assay type: biochemical
- condition context: read-out: M^pro biochemical assay pIC50 (converted)
In this section we review reported IC50 values for a set of compounds.
Write the value in nM as a bare number.

{"compound": "COc1cccc2[nH]c(C(=O)N[C@@H](Cc3cccc(F)c3)C(=O)N[C@@H](C[C@@H]3CC(=O)NC3=O)C(=O)COc3c(F)c(F)c(C(C)O)c(F)c3F)cc12 (stereo partly drawn)", "assayed target": "SARS-CoV-2 M^pro (Severe acute respiratory syndrome coronavirus 2, UniProt P0DTD1)", "IC50 / nM": 5.5}

// IC50 lookup, compound = COc1cccc2[nH]c(C(=O)N[C@@H](Cc3cccc(F)c3)C(=O)N[C@@H](C[C@@H]3CCNC3=O)C(=O)COc3c(F)c(F)cc(F)c3F)cc12 [compound 15, reference compound] , result: 5.89

// IC50 lookup, compound = O=C(N[C@@H](Cc1c[nH]c2ccccc12)C(=O)N[C@@H](C[C@@H]1CCNC1=O)C(=O)COc1c(F)c(F)c(CO)c(F)c1F)c1cc2ccccc2[nH]1 , result: 41.7
